assayedTarget: T1, monkey GFRα3 expressed with a C-terminal myc-myc-hexahistidine tag (monkey (Mf), UniProt O60609 32-374 (human entry), limits assumed)
T1 construct: also called MfGFRα3-mmh; MfGFRα3-mmH
T1 chain: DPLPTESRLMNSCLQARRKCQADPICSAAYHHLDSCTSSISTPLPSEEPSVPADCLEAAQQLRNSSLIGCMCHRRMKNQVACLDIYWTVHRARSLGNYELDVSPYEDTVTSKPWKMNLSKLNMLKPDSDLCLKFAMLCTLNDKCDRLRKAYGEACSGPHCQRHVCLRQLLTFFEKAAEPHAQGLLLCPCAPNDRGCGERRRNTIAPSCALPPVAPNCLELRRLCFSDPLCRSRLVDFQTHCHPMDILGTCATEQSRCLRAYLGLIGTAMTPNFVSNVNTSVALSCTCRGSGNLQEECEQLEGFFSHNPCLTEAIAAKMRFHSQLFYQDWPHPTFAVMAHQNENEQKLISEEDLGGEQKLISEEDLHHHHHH
assayInfo: SPR, Ab captured, 37C
measurementName: koff (s⁻¹)
Write the number in s⁻¹ without appending the unit.

binder="H4H2293P (antibody, human IgG4, V domains shown, human IgG4 Fc (H4H)) VH: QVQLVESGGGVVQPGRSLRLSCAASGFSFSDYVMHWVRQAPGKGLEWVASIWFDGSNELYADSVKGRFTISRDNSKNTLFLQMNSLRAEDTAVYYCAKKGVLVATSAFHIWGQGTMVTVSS VL: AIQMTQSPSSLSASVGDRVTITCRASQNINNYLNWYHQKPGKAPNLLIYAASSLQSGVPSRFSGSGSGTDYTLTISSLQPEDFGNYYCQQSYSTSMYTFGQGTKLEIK" unitname=s⁻¹ experimentalvalue=0.000158
binder="H2aM2210N (antibody, mouse IgG2, V domains shown, chimeric, mouse IgG2 Fc (H2M/H2aM); also called H2M2210N) VH: EVQLLESGGGLVQPGGSLRVSCAASGFTFSTSAMSWVRQAPGKGLEWVSGISGIGGGSTYYADSVKGRFTISRDNSKNTLYLQMNSLRAEDTAVYFCAKFYKWNSYIFDLWGQGTMVTVSS VL: EIVLTQSPDTLSLSPGERATLSCRASQSVSSSYFAWYQQKPGQAPRLLMYSASSRATGIPDRFSGSGSGTDFSLTISRLEPEDFAVYYCQQYGRSLTFGGGTKVEIK" unitname=s⁻¹ experimentalvalue=0.00618

Lab note: next binder to report on.
Prompt: Sample H4H2295S (antibody, human IgG4, V domains shown, human IgG4 Fc (H4H)) VH: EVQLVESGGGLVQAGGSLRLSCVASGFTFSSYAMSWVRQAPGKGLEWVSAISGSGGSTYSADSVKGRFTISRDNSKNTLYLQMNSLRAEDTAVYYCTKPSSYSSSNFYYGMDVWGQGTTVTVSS VL: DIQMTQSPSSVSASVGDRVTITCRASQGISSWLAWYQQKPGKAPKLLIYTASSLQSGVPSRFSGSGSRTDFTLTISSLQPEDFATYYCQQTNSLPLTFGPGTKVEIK — what was its koff?
Response: 0.00561
